System under test: SARS-CoV-2 spike protein receptor binding domain (isolated RBD) (SARS-CoV-2, UniProt P0DTC2 319-541)
Measured property: Kd (nM)
Numbers only; they are read as nM.

Examples with answers:
INSERT INTO results (binder, readout_units, value_reported) VALUES
  ('IMPI-056 (antibody, V domains shown) VH: EVQLVESGGGLIQPGGSLRLSCAASGLTVSSNYMNWVRQAPGKKLEWVSVIYSGGSTFYADSVRGRFTISRDNSKNTLFLQMNSLRAEDSAVYYCARDLGPYGVDVWGQGTTVTVSS VL: DIQLTQSPSFLSASVGDRVTITCWASQGISSYLAWYQQKPGKAPKLLIYAASTLQSGVPSRFSGSGSGTEFTLTISSLQPEDFATYYCQQLNSYPLTFGQGTRLEIK', 'nM', 0.44),
  ('IMPI-068 (antibody, V domains shown) VH: QVQLVESGGDVVQPGRSLRLSCAASGFTFSRYGMHWVRQAPGKGLEWVAVISYDGSDKYYADSVKGRFTISRDNSKNTLYLQMNSLRAEDTAVYYCAKQLPLYYYYYGMDVWGQGTTVTVSS VL: AIQLTQSPSSLSASVGDRVTITCRASQGISSALAWYQQKPGKAPNLLIYDASSLESGVPSRFSGSGSGTDFTLTISSLQPEDFATYYCQQFNIYPHTFGPGTKVDIK', 'nM', 40.5),
  ('IMPI-006 (antibody, V domains shown) VH: QLQLQESGPGLVKPSETLSLTCTVSGGSISNSNYYWGWIRQPPGKGLEWIGSIYYSGRTYYNPSLKSRVTISVDTSKNQFSLKLSSVTAADTAVYYCARMGLLWFGEFYGMDVWGQGTTVTVSS VL: DIQMTQSPSSLSASVGDRVTITCRASQGISSWLAWYQQKPEKAPKSLIYDASSLQRGVPSRFSGSGSGTDFTLTISSLQPEDFASYYCQQYNSYPLTFGGGTRVEIK', 'nM', 0.88);

For the binder IMPI-017 (antibody, V domains shown) VH: EVQLVESGGGLIQPGGSLRLSCAAAGLTVSSNYMNWVRQVPGKGLEWVSVIYSGGSTYYADSVKGRFTISRDNSKNTLYLQMNSLRAEDTAVYYCARDLGTLGMDVWGQGTTVTVSS VL: DIQLTQSPSFLSASVGDRVTITCWASQGISTYLAWYQQKPGKAPKLLIYAASTLQSGVPSRFSGSGSGTEFTLTISSLQPEDFATYYCQQLNSYLPTFGQGTKVEIK , report Kd.
1.87

For the binder IMPI-054 (antibody, V domains shown) VH: EVQLVESGGGLIQPGGSLRLSCAASGLTVSSNYMSWVRQAPGKGLEWVSIIYSGGSTYYADSVKGRFTISRDNSKNTLYLQMNSLRAEDTAVYYCARLGGYYYYGMDVWGQGTTVTVSS VL: DIQMTQSPSSLSASVGERVTITCQASQDIRNYLNWYQKKPGKAPKLLIYDSSNLETGVPSRFSGSGSGTDFTFTISSLQPEDIATYYCQQYDNLPITFGQGTRLEIK , report Kd.
1.11

For the binder IMPI-059 (antibody, V domains shown) VH: EVQLVESGGGLIQPGGSLRLSCAASGFTVSSIYMSWVRQAPGKGLEWVSIIYSRGSTDYADSVKGRFTISRDISKNTLYLQMNSLRAEDTAVYYCARDGTMVRGVHAFDIWGQGTMVTVSS VL: DIQMTQSPPSLSASIGDRVTITCQASQDISNYLNWYQQKPGKAPKLLIYDASNLETGVPSRFSGSGSGTDFTLTISNLQPEDIVTYYCQQYDNLPSSFGQGTKLEIK , report Kd.
0.646
